The entries below come with measured Serum τ1/2 (h) rat values attached.
# Experiment description: Serum stability in rat serum at 37° C.
# Format: in vitro ADME
# Settings: mono-exponential fit
Record the value in h, omitting the unit from your answer.

Which Serum τ1/2 (h) rat reading was recorded for the molecule C124A/M253L: RLuc mutant C124A/M253L (protein) MASKVYDPEQRKRMITGPQWWARCKQMNVLDSFINYYDSEKHAENAVIFLHGNAASSYLWRHVVPHIEPVARCIIPDLIGMGKSGKSGNGSYRLLDHYKYLTAWFELLNLPKKIIFVGHDWGAALAFHYSYEHQDKIKAIVHAESVVDVIESWDEWPDIEEDIALIKSEEGEKMVLENNFFVETMLPSKIMRKLEPEEFAAYLEPFKEKGEVRRPTLSWPREIPLVKGGKPDVVQIVRNYNAYLRASDDLPKLFIESDPGFFSNAIVEGAKKFPNTEFVKVKGLHFSQEDAPDEMGKYIKSFVERVLKNEQ ?
10

Which Serum τ1/2 (h) rat reading was recorded for the molecule C124A/F199M: RLuc mutant C124A/F199M (protein) MASKVYDPEQRKRMITGPQWWARCKQMNVLDSFINYYDSEKHAENAVIFLHGNAASSYLWRHVVPHIEPVARCIIPDLIGMGKSGKSGNGSYRLLDHYKYLTAWFELLNLPKKIIFVGHDWGAALAFHYSYEHQDKIKAIVHAESVVDVIESWDEWPDIEEDIALIKSEEGEKMVLENNFFVETMLPSKIMRKLEPEEMAAYLEPFKEKGEVRRPTLSWPREIPLVKGGKPDVVQIVRNYNAYLRASDDLPKMFIESDPGFFSNAIVEGAKKFPNTEFVKVKGLHFSQEDAPDEMGKYIKSFVERVLKNEQ ?
6.0
